Target: insulin receptor A (UniProt P06213-2 28-1370, limits assumed)
Sequence (P06213 other isoform, or with tags, fused parts or gaps limits assumed): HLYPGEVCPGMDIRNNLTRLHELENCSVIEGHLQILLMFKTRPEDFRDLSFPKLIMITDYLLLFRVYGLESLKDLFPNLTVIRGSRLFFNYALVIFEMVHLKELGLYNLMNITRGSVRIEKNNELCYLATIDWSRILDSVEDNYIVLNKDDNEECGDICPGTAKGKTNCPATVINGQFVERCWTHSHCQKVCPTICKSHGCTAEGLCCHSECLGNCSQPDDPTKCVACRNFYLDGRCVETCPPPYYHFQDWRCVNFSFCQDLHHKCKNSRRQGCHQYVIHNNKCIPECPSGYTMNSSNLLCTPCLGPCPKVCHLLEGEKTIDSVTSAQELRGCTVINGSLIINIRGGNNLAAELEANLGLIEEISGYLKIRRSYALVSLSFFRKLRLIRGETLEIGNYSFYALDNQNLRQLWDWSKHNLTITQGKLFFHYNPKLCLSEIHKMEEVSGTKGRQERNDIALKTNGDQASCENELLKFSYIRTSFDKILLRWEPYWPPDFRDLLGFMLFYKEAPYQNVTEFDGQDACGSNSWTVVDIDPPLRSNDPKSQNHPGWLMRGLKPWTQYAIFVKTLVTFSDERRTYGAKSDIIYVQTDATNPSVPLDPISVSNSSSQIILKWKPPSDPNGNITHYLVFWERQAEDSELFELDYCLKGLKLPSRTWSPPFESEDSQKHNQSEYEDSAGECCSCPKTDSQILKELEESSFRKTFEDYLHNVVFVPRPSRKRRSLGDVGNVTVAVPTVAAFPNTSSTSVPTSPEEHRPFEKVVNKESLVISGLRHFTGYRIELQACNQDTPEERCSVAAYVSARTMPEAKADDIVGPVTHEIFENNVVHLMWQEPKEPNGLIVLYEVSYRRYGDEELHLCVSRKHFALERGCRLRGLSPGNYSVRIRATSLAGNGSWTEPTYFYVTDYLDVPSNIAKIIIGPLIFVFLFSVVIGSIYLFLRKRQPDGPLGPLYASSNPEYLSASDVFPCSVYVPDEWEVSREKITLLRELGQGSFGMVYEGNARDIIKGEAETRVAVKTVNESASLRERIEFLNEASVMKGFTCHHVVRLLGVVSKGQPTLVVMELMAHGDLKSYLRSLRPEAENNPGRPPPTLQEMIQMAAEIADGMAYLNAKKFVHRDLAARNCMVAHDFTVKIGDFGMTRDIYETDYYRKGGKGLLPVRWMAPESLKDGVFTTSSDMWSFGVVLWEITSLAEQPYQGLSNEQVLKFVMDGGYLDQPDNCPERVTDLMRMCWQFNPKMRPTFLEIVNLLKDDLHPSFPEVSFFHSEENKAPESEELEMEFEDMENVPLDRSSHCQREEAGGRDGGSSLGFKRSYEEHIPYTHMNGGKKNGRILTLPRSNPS
Test: insulin receptor binding assay as in Vienberg et al. 2011; relative to human insulin on insulin receptor A (100%)
Documented Insulin receptor affinity [IC50 relative to HI (%)] across a set of binders
Quantity: Insulin receptor affinity [IC50 relative to HI (%)]

# Binder, Measured number
records = [
    ("A14E, A21Q, A22(G)18, A40K^, B25H, B29R, desB30 human insulin/(227A, 234A, 235K hIgG4-Fc(228-447)) 4-[bis[2-[(2-acetyl)amino]ethyl]amino]-4-oxo-butanoyl … (other, Cys229 (EU numbering) sulphur bound to an acetyl arm of the linker; A40K N(eps) acylated by the trivalent linker 4-[bis[2-[(2-acetyl)amino]ethyl]amino]-4-oxo-butanoyl, also called Ex 5.21) chain 1: GIVEQCCTSICSLEQLENYCQGGGGGGGGGGGGGGGGGGK chain 2: FVNQHLCGSHLVEALYLVCGERGFHYTPR chain 3: ASCPAPEAKGGPSVFLFPPKPKDTLMISRTPEVTCVVVDVSQEDPEVQFNWYVDGVEVHNAKTKPREEQFNSTYRVVSVLTVLHQDWLNGKEYKCKVSNKGLPSSIEKTISKAKGQPREPQVYTLPPSQEEMTKNQVSLTCLVKGFYPSDIAVEWESNGQPENNYKTTPPVLDSDGSFFLYSRLTVDKSRWQEGNVFSCSVMHEALHNHYTQKSLSLSLGK", 2.1),
    ("A14E, A21G, A22(GQAPGQAPGQEP)6-GQAP, A98K^, A99P, B3Q, B25H, B29R, desB30 human insulin/(227A, 234A, 235K, 297E, 315Q, 384Q, des447 hIgG4-Fc(228-447)) … (other, Cys229 (EU numbering) sulphur bound to an acetyl arm of the linker; A98K N(eps) acylated by the trivalent linker 4-[bis[2-[(2-acetyl)amino]ethyl]amino]-4-oxo-butanoyl, also called Ex 5.13) chain 1: GIVEQCCTSICSLEQLENYCGGQAPGQAPGQEPGQAPGQAPGQEPGQAPGQAPGQEPGQAPGQAPGQEPGQAPGQAPGQEPGQAPGQAPGQEPGQAPKP chain 2: FVQQHLCGSHLVEALYLVCGERGFHYTPR chain 3: ASCPAPEAKGGPSVFLFPPKPKDTLMISRTPEVTCVVVDVSQEDPEVQFNWYVDGVEVHNAKTKPREEQFESTYRVVSVLTVLHQDWLQGKEYKCKVSNKGLPSSIEKTISKAKGQPREPQVYTLPPSQEEMTKNQVSLTCLVKGFYPSDIAVEWESQGQPENNYKTTPPVLDSDGSFFLYSRLTVDKSRWQEGNVFSCSVMHEALHNHYTQKSLSLSLG", 5.55),
]
